The measured values listed here are drawn from patent US20250355001A1.

target: T1, hT40 (T441, SEQ ID NO: 1) (Homo sapiens, UniProt P10636); assay: Biacore X100 SPR kinetics of scAbs for hT40; format: binding; conditions: Table 25; '3a' and '3b' scAbs, hT40
T1 construct: Full length tau (hT40)
T1 sequence (P10636 1-441 isoform P10636-8): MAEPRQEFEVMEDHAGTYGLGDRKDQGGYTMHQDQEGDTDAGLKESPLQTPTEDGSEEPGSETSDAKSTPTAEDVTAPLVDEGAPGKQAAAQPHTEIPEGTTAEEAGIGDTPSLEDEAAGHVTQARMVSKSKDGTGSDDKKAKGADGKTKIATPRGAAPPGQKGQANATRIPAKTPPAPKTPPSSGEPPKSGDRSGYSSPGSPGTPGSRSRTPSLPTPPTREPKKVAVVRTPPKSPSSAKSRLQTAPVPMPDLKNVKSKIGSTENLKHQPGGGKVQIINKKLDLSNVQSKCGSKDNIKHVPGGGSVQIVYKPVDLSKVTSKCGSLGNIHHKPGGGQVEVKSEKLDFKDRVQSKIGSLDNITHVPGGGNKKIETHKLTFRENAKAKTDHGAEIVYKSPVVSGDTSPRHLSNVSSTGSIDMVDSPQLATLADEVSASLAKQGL

# molecule, units.symbol, kd
rows = [
    ("3bF4: anti-tau clone, Table 7; SEQ ID NO: 421 (protein, 3bF4 amino acid sequence) QVQLQESGPSLVKPSQTLSLTCTVSGFSLSSNGVGWVRQAPGKVPEWLGDISSVGKKYANPALKSRLSFTRDTSKSQVSLSLSSVTTEDTAVYYCVKCRDGGVTYGYDIDYWGPGLLVTVSSEGKSSGASGESKVDDQAVLTQPSSVSKSTGQTVSITCSGSSSNVGLRNYVTWFQQVPGSAPKLLIYGATSRASGIPDRFSGSRSGNTATLIISSLQAEDEADYYCASADTNDGGVFGSGTRLTVLG", "s⁻¹", 0.01532),
]
